- tested.system: Integrin alpha-V/beta-5 (Homo sapiens, UniProt P06756+P18084)
- Sequence (P06756 31-889 limits assumed): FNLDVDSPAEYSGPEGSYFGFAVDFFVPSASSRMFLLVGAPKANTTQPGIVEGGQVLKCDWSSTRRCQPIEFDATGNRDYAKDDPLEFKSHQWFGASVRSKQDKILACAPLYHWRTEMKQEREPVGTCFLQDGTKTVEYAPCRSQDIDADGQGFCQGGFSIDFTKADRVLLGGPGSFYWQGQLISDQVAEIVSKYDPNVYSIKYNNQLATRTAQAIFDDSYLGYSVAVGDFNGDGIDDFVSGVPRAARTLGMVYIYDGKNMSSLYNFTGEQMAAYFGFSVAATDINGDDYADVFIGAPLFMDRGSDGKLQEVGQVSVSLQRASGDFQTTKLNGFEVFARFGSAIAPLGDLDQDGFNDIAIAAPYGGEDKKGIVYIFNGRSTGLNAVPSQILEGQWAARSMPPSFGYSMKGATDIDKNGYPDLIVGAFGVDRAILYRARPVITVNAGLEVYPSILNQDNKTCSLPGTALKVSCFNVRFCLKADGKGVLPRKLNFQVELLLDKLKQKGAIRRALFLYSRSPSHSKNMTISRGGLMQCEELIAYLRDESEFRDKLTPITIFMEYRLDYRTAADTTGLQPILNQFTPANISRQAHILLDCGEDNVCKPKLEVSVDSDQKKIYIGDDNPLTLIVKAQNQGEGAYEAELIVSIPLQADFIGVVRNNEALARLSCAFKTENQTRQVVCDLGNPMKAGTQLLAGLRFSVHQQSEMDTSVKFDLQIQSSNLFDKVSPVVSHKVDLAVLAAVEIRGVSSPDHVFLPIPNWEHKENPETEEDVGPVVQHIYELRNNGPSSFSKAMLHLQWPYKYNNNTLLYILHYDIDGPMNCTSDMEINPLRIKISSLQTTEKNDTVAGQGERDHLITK
- Sequence (P06756 891-1048 limits assumed): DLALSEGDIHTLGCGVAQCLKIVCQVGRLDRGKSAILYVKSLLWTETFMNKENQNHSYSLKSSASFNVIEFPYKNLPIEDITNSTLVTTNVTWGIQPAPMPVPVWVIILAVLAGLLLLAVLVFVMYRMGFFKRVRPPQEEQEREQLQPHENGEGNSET
- Sequence (P18084 24-799 limits assumed): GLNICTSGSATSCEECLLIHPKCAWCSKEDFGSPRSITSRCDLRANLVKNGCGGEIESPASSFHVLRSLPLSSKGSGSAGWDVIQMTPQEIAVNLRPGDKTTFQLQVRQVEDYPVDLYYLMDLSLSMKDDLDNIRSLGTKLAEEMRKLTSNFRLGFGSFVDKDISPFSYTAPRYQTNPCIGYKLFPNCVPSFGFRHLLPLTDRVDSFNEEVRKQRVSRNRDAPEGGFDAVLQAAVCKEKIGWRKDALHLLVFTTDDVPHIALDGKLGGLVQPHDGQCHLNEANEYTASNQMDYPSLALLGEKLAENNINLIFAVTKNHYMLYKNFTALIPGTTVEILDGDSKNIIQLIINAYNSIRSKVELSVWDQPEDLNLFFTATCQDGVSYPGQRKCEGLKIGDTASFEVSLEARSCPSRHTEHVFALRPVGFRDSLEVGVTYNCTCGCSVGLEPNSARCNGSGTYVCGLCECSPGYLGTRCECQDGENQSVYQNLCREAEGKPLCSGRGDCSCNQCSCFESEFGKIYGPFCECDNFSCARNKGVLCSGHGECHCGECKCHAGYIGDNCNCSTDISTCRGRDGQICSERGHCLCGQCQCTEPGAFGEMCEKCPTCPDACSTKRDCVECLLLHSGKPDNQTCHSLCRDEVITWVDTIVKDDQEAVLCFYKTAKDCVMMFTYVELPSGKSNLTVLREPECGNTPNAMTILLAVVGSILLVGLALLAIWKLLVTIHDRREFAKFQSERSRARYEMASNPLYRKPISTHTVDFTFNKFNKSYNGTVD
- assay.method.text: Displacement of [125I]echistatin from human integrin alpha-V-beta-5 receptor low affinity state by solid phase assay
- Format: protein-complex assay
metric.name: IC50

System Integrin alpha-V/beta-5 (Homo sapiens, UniProt P06756+P18084). Read-out IC50. Item "CCCCCCCN1C[C@@H]2C[C@H]1C(=O)N[C@@H](CCCN=C(N)N)C(=O)NCC(=O)N[C@@H](CC(=O)O)C(=O)N2" . Report value.
62.3 nM

* * *

- tested.system: Integrin alpha-V/beta-3 (Homo sapiens, UniProt P05106+P06756)
- Sequence (P05106 27-788 limits assumed): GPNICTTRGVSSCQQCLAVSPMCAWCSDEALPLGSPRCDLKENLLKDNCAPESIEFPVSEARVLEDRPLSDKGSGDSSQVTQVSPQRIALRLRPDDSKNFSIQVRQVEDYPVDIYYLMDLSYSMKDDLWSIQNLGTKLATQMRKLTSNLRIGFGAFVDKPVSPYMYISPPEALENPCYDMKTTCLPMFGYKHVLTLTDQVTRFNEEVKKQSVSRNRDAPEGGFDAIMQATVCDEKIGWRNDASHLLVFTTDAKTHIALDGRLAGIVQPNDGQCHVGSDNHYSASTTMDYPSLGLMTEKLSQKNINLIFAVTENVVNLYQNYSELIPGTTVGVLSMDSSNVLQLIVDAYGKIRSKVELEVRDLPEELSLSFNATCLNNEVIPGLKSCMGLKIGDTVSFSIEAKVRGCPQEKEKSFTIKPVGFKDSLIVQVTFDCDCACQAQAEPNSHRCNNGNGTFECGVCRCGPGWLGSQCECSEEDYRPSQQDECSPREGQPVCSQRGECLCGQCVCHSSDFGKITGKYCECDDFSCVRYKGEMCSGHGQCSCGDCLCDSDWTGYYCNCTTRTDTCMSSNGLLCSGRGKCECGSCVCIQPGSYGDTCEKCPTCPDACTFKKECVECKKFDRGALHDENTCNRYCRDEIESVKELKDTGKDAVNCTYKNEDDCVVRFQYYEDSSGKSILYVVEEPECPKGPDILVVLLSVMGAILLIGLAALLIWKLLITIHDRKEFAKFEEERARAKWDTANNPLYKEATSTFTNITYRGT
- Sequence (P06756 31-889 limits assumed): as the sequence (P06756 31-889 limits assumed) above
- Sequence (P06756 891-1048 limits assumed): as the sequence (P06756 891-1048 limits assumed) above
- assay.method.text: Displacement of [125I]echistatin from human integrin alpha-V-beta-3 receptor low affinity state by solid phase assay
- Format: protein-complex assay
Parameter IC50: see the listing below.
Answer in nM, number only, no unit symbol.

These recorded examples may help you get a feel for the data.
> print(dat)
                                item.smiles                             tested.system  result
1  NC(N)=NCCC[C@@H]1NC(=O)[C@@H]2C[C@@H](CN2C(=O)c2ccccc2)NC(=O)[C@H](CC(=O)O)NC(=O)CNC1=O  Integrin alpha-V/beta-3 (Homo sapiens, UniProt P05106+P06756)     600
2  NC(N)=NCCC[C@@H]1NC(=O)[C@@H]2C[C@H](CN2C(=O)c2ccccc2)NC(=O)[C@H](CC(=O)O)NC(=O)CNC1=O  Integrin alpha-V/beta-3 (Homo sapiens, UniProt P05106+P06756)     327
3  CCCCCCCN1C[C@@H]2C[C@H]1C(=O)N[C@@H](CCCN=C(N)N)C(=O)NCC(=O)N[C@@H](CC(=O)O)C(=O)N2  Integrin alpha-V/beta-3 (Homo sapiens, UniProt P05106+P06756)     178

Next molecule, please.
Find the measured IC50 of "CCC(=O)N1C[C@@H]2C[C@H]1C(=O)N[C@@H](CCCN=C(N)N)C(=O)NCC(=O)N[C@@H](CC(=O)O)C(=O)N2" and report it.
251
